Just for reference, PubChem BioAssay (NCATS) is where these values come from.

- Test system: Zika virus NS2B-NS3 protease (linked construct)
- Test Description: Primary screen NINDS Rhodamine qHTS for Zika virus inhibitors (AID 1347160); further: nearly all actives have a fitted effect of over 55% in size
- Condition Description: purified NS2B-NS3 protease, Rhodamine110 substrate fluorescence; series mostly up to 57.1 µM
Inconclusive results are not listed. Activity calls are given as the source filed them. The call rests on the fitted dose curve; in most records, active means well fitted inhibition curve with a large enough effect; inconclusive means small, poorly fitted or top-dose-only effect; inactive means no such curve, though single readings can be large or run the other way.
Result Type: outcome

[[record]]
compound = "COc1ccc([C@@H]2OC[C@H]3[C@@H]2CO[C@@H]3c2ccc(OC3OC(CO)C(O)C(O)C3O)c(OC)c2)cc1OC (stereo not given in full)"
result_type = "outcome"
result = "inactive"

[[record]]
compound = "COc1cc(C(=O)O)ccc1OC1OC(CO)C(O)C(O)C1O (stereo not given)"
result_type = "outcome"
result = "inactive"

[[record]]
compound = "Cc1cnc(Nc2ccc(F)cc2Cl)nc1-c1c[nH]c(C(=O)NC(CO)c2cccc(Cl)c2)c1 (stereo not given)"
result_type = "outcome"
result = "inactive"

[[record]]
compound = "C=CC(=O)Nc1cccc(CN2C(=O)N(c3c(Cl)c(OC)cc(OC)c3Cl)Cc3cnc(NCCCCN(CC)CC)nc32)c1"
result_type = "outcome"
result = "inactive"

[[record]]
compound = "Cc1c[nH]c2nccc(Oc3c(F)cc(Nc4cc(Cl)nc(N)n4)cc3F)c12"
result_type = "outcome"
result = "inactive"


----------
- Subject Of Test: Luciferin 4-monooxygenase (Photinus pyralis) (UniProt P08659)
- Test Description: Primary firefly luciferase (FLuc) qHTS assay for identification of artifact compounds. (AID 1845220); further: nearly all actives have a fitted effect of over 60% in size;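 on activity change, negative = inhibition: plate controls were DMSO vehicle for no effect and no enzyme for full effect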
- Condition Description: purified firefly luciferase, luminescence, 5 min; series mostly up to 54.1 µM
Calls of active or inactive are those of the source. Calls come from the whole dose curve; as a rule, active = well fitted inhibition curve with a large enough effect; inconclusive = small, poorly fitted or top-dose-only effect; inactive = flat fitted curve, though single readings scatter.
Result Type: activity change, negative = inhibition

[[record]]
compound = "Cc1noc(=O)c2ccc(NC(=O)C(O)(CC(C)(C)c3cccc4c3OCC4)C(F)(F)F)cc12 (configuration not stated)"
result = "inactive"

[[record]]
compound = "O=C(O)c1ccc(OC2OC(CO)C(O)C(O)C2O)cc1 (configuration not stated)"
result = "inactive"

[[record]]
compound = "C/C(=C\\CC[C@@H](C)[C@H]1CC(O)[C@@]2(C)C3CC[C@H]4C(C)(C)[C@@H](OC5OCC(O)C(O)C5OC5OC(CO)C(O)C(O)C5O)CC[C@@]45C[C@@]35CC(O)[C@]12C)C(=O)O (some centres not stated)"
result = "inactive"

[[record]]
compound = "C[C@@H]1O[C@@H](O[C@H]2[C@@H]3C=CO[C@@H](O[C@@H]4O[C@H](CO)[C@@H](O)[C@H](O)[C@H]4O)[C@@H]3[C@@]3(CO)O[C@@H]23)[C@H](OC(=O)/C=C/c2ccc(O)c(O)c2)[C@H](O)[C@H]1O"
result = "inactive"

[[record]]
compound = "CC(c1ncncc1F)C(O)(Cn1cncn1)c1ccc(F)cc1F (configuration not stated)"
result = "inactive"

[[record]]
compound = "N#Cc1ccc(-c2cnc3[nH]cc(NC(=O)c4cccnc4)c3c2)cc1"
result = "inactive"

[[record]]
compound = "C[C@@H]1CN(Cc2ccccc2)C[C@H]1c1nc2c(cnn2C2CCOCC2)c(=O)[nH]1"
result = "inactive"

[[record]]
compound = "COC(=O)C1=CO[C@@H](O[C@@H]2O[C@H](CO)[C@@H](O)[C@H](O)[C@H]2O)[C@@H]2C(COC(C)=O)=C[C@H](O)[C@H]12"
result = "inactive"

[[record]]
compound = "COc1ccc(-c2ccc3c(N4CCOCC4)nc(N4CC(C)OC(C)C4)nc3n2)cc1CO (configuration not stated)"
result = "inactive"

[[record]]
compound = "COc1cc(N)c(Cl)cc1C(=O)NC[C@@H]1CCN2CCC[C@@H]12"
result = "inactive"

[[record]]
compound = "CC(Oc1cc(-n2cnc3ccc(CN4CCN(C)CC4)cc32)sc1C(N)=O)c1ccccc1C(F)(F)F (configuration not stated)"
result = "inactive"

[[record]]
compound = "C[C@H](N)C(=O)N[C@@H](Cc1ccc(O)cc1)C(=O)N1CCC[C@H]1C(=O)NCC(=O)N[C@@H](CCCCN)C(=O)N[C@@H](Cc1ccccc1)C(N)=O"
result = "3.15% [at 11.6 µM] (inactive)"

[[record]]
compound = "C=C1OC2CC(C(=O)O)C=CC2NC1=O (configuration not stated)"
result = "inactive"

[[record]]
compound = "C=C1C(OC(=O)/C(C)=C\\C)[C@@]23CCC4[C@@](C)(CCC[C@@]4(C)C(=O)O)C2CC[C@H]1C3OC(C)=O (some centres not stated)"
result = "inactive"

[[record]]
compound = "CC(C)(C)NS(=O)(=O)c1cncc(-c2cc(F)c3nc(N)nn3c2)c1"
result = "inactive"

[[record]]
compound = "CC1(C)CC[C@]2(C(=O)O[C@@H]3O[C@H](CO[C@@H]4O[C@H](CO)[C@@H](O)[C@H](O)[C@H]4O[C@@H]4O[C@H](CO)[C@@H](O)[C@H](O)[C@H]4O)[C@@H](O)[C@H](O[C@@H]4O[C@H](CO)[C@@H](O)[C@H](O)[C@H]4O)[C@H]3O)CC[C@]3(C)C(=CCC4[C@@]5(C)CC[C@@H](O)[C@@](C)(C(=O)O[C@@H]6O[C@H](CO)[C@@H](O)[C@H](O)[C@H]6O)C5CC[C@]43C)[C@@H]2C1 (some centres not stated)"
result = "2.91% [at 11.6 µM] (inactive)"

[[record]]
compound = "CC(C)=CCC[C@](C)(O)[C@H]1CC[C@]2(C)[C@@H]1[C@H](O)CC1[C@@]3(C)CC[C@H](O)C(C)(C)C3[C@@H](O[C@@H]3O[C@H](CO)[C@@H](O)[C@H](O)[C@H]3O[C@@H]3OC[C@@H](O)[C@H](O)[C@H]3O)C[C@]12C (some centres not stated)"
result = "inactive"

[[record]]
compound = "COc1ccc(C[C@H](N)C(=O)N[C@@H]2[C@H](O)[C@H](n3cnc4c(N(C)C)ncnc43)O[C@@H]2CO)cc1"
result = "inactive"

[[record]]
compound = "C=C1C(=O)OC2CC3(C)C(CC12)C(C)=CC(O)C3OC(C)=O (configuration not stated)"
result = "inactive"

[[record]]
compound = "C=CC(=O)Nc1cccc(Nc2nc(Nc3ccc(N4CCN(C(C)=O)CC4)cc3OC)ncc2C(F)(F)F)c1"
result = "inactive"

[[record]]
compound = "O=[N+]([O-])c1cccc2[nH]c(CNc3nc(N4CCOCC4)nc4c3ncn4-c3ccsc3)nc12"
result = "inactive"

[[record]]
compound = "C=C[C@]1(C)C[C@H](O)[C@@H]2[C@H](OC(=O)[C@@H]2C)C1/C(C)=C/O[C@@H]1O[C@H](CO)[C@@H](O)[C@H](O)[C@H]1O (some centres not stated)"
result = "inactive"

[[record]]
compound = "COc1ccc(-c2c(-c3cc(C(=O)O)ccn3)ncn2C)cc1"
result = "inactive"

[[record]]
compound = "CC(=O)C=C=C1C(C)(C)CC(O[C@@H]2O[C@H](CO)[C@@H](O)[C@H](O)[C@H]2O)CC1(C)O (some centres not stated)"
result = "inactive"

[[record]]
compound = "CC1(C)CC[C@]2(C(=O)O[C@@H]3O[C@H](CO)[C@@H](O)[C@H](O)[C@H]3O)CC[C@]3(C)C(=CCC4[C@@]5(C)C[C@@H](O)[C@H](O)[C@](C)(C(=O)O)C5CC[C@]43C)C2C1O (some centres not stated)"
result = "inactive"

[[record]]
compound = "CC(=O)O[C@@H]1[C@@H](O)[C@H](O[C@H]2CC[C@]34C[C@]35CC[C@]3(C)[C@@H]([C@@]6(C)CC[C@@H](C(C)(C)O)O6)[C@@H](O)C[C@@]3(C)[C@@H]5C[C@H](O[C@@H]3O[C@H](CO)[C@@H](O)[C@H](O)[C@H]3O)[C@H]4C2(C)C)OC[C@H]1O"
result = "inactive"

[[record]]
compound = "COC(=O)C1(C)CCC2(C(=O)O)CCC3(C)C(=CCC4C5(C)CC(O)C(OC6OCC(O)C(O)C6O)C(C)(CO)C5CCC43C)C2C1 (configuration not stated)"
result = "inactive"

